These measurements were taken from ChEMBL document CHEMBL5614460.

Target: Tyrosine-protein phosphatase non-receptor type 11 (Homo sapiens)
Sequence (Q06124 whole entry): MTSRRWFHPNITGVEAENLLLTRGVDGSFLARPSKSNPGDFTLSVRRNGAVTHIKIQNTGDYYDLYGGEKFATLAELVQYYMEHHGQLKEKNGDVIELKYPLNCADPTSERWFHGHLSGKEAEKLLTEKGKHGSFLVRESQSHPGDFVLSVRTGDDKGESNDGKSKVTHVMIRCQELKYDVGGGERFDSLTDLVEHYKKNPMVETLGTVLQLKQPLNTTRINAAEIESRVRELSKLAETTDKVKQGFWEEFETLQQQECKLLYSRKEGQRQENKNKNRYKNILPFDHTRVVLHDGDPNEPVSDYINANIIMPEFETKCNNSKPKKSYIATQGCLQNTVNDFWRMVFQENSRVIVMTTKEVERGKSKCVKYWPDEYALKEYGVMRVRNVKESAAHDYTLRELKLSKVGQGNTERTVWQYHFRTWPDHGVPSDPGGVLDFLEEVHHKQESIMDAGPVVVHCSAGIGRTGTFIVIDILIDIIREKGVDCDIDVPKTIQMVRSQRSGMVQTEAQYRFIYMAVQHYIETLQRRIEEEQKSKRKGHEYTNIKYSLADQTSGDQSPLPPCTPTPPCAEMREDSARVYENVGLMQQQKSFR
Experiment: Inhibition of SHP2 (unknown origin)
pIC50: −log10 of the molar value.
property-label: pIC50

1) Cc1nc(N2CCC3(CC2)CO[C@@H](C)[C@H]3N)c(CO)nc1Sc1ccnc(N)c1Cl [VOCIPROTAFIB] : 8.82

---

Biological target: Tyrosine-protein phosphatase non-receptor type 11 (Homo sapiens)
Assay: Allosteric inhibition of N-terminal His-tagged human recombinant SHP2 extracted from Escherichia coli using DiFMUP as substrate preincubated with compound for 60 mins followed by substrate addition and measured after 30 mins by fluorescence based microplate reader analysis
pIC50: −log10 of the molar value.
property-label: pIC50

1) CC1(N)CCN(c2cnc(Sc3cccc(NC(=O)c4ncccn4)c3Cl)cn2)CC1 : 7.52
2) CC1(N)CCN(c2cnc(Sc3ccc(NC(=O)c4ccccc4)cc3Cl)cn2)CC1 : 6.53
3) N[C@@H]1c2ccccc2CC12CCN(c1cnc(Sc3cccc(NC(=O)c4cccnc4O)c3Cl)cn1)CC2 : 8.73
4) Cc1cccnc1C(=O)Nc1cccc(Sc2cnc(N3CCC(C)(N)CC3)cn2)c1Cl : 7.05
5) CC1(N)CCN(c2cnc(Sc3cccc(NC(=O)c4cnccn4)c3Cl)cn2)CC1 : 7.11
6) CC1(N)CCN(c2cnc(Sc3cccc(NC(=O)c4ccccn4)c3Cl)cn2)CC1 : 7.53
7) CC1(N)CCN(c2cnc(Sc3cccc(NC(=O)c4cccs4)c3Cl)cn2)CC1 : 6.93
8) CC1(N)CCN(c2cnc(Sc3cccc(NC(=O)c4cnccc4Cl)c3Cl)cn2)CC1 : 6.89
9) N[C@@H]1c2ccccc2CC12CCN(c1cnc(Sc3cccc(NC(=O)c4ncccc4Cl)c3Cl)cn1)CC2 : 8.97
